target: T1, HLA-DR3 (DRB1*0301), purified from cell line MAT (human); assay: competition vs 125I-peptide, purified class II MHC
T1 chain 1: not shown
T1 chain 2: not shown
Non-standard residues stand in square brackets, D forms with d. No end group written: not given here. 14 = not defined here
Recorded IC50 for the following binders
Quantity name: IC50 (nM)

| Binder | Measure unit | Assay result |
| --- | --- | --- |
| [dA]K[14]VWANTLKAA[dA]-NH2 (reading uncertain; also: printed as aK(14)VWANTLKAAa-NH2) [peptide 965.032, aK(14)…a-NH2] | nM | 849 |
| [dA]K[14]VKANTLKAA[dA]-NH2 (reading uncertain; also: printed as aK(14)VKANTLKAAa-NH2) [peptide 965.011, aK(14)…a-NH2] | nM | 592 |
| [dA]K[14]VAAHTLKAA[dA]-NH2 (reading uncertain; also: printed as aK(14)VAAHTLKAAa-NH2) [peptide 955.15 (as printed), aK(14)…a-NH2] | nM | 2500 |
| [dA]K[14]VKAWTLKAA[dA]-NH2 (reading uncertain; also: printed as aK(14)VKAWTLKAAa-NH2) [peptide 965.021, aK(14)…a-NH2] | nM | 1100 |
| [dA]K[14]VKANTLKAA[dA]-NH2 (reading uncertain; also: printed as aK(14)VKANTLKAAa-NH2) [peptide 965.012, aK(14)…a-NH2] | nM | 4590 |
